Target: T1, recombinant human ADAMTS5 (R&D Systems cat #2198-AD) (human, UniProt Q9UNA0 262-622, limits assumed)
T1 sequence: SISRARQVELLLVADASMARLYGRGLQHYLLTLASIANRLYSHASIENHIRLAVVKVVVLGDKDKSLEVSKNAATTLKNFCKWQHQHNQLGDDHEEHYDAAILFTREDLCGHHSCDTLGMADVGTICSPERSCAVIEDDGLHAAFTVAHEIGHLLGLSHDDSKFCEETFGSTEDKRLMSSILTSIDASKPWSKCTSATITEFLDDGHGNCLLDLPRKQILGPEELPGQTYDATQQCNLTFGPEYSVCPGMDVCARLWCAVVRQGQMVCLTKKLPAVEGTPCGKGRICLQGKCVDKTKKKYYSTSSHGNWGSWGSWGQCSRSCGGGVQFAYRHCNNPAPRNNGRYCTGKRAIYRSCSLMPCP
Test: cell-based or functional assay
Recorded Human AlphaLISA IC50 by entry
State just the number; it will be interpreted in nM.

Tell us which Human AlphaLISA IC50 value is on record for Nanobody 9D03 (VHH, tagged as tested (anti-Flag detection, IMAC); also called 09D03; 9D3) VHH: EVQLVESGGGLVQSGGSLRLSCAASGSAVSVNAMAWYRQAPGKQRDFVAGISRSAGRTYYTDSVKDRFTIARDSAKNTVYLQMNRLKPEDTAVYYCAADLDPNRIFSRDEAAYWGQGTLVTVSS
0.11

Could you please provide reported Human AlphaLISA IC50 for Nanobody 3B03 (VHH, tagged as tested (anti-Flag detection, IMAC); also called 03B03) VHH: EVQLVESGGDLVQPGGSLRLSCAASGSDVVVNDMGWYRQAPGKQRELVADITTGGRTNYADSVKGRFTISRDNVKNTVYLQMNSLKPEDTAVYYCNAQVGDSDDDVWYAYWGQGTLVTVSS ? Thanks!
12

Dear colleague, please send me the reported Human AlphaLISA IC50 for Nanobody 9D09 (VHH) VHH: EVQLVESGGGLVQAGGSLRLSCAASGLTFSSYTMGWFRQAPGQEREFVSAISWNTFTTYYVDSVKDRFTVSRDNAKNTLYLRMNSLKPEDTAVYYCAAAGGSPRQHEPYEYRVWGQGTLVTVSS when you can.
2.6

Item Nanobody 3D02 (VHH, tagged as tested (anti-Flag detection, IMAC); also called 03D02) VHH: EVQLVESGGGLVQAGASLRLSCATSGFTFSPYYMGWFRQAPGKERDFVAAISWSRGILYYTDSTEGRFTISRDNAKNTMYLQMDNLNPEDTAVYYCAASRSPGDPSRTYLYDYWGQGTLVTVSS : provide Human AlphaLISA IC50
0.22

Numbers sourced from patent US20200317802A1.
